- ASSAY_OVERVIEW: Compound was evaluated for binding affinity towards 5-hydroxytryptamine 1D receptor in bovine caudate using [3H]- serotonin as radioligand
pIC50: −log10 of the molar value.
Listed below: pIC50 values for each entry.

{"columns": ["SAMPLE_SMILES", "pIC50"],
 "data": [
  ["NCCc1c[nH]c2ccc3c(c12)CCCO3", 6.96],
  ["CN(C)CCc1cn(C)c2ccc3c(c12)CCCO3", 5.03],
  ["Cn1cc(CCN)c2c3c(ccc21)OCCC3", 5.38],
  ["CN(C)CCc1c[nH]c2ccc3c(c12)CCCO3", 6.66]
]}
